molecular target: T1, Anti-CD28 Fab (SEQ ID NOs: 696, 697); test: phage ELISA; biotinylated anti-CD28 Fab on neutravidin plates, clonal phage supernatant, anti-M13 HRP detection
T1 construct: Biotinylated and captured on neutravidin coated plates in the phage ELISA
T1 sequence (VH, as listed by the source, chain 1 of 2): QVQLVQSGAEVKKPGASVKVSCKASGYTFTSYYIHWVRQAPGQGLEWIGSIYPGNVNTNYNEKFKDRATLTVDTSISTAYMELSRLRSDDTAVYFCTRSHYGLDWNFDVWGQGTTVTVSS
T1 sequence (VL, as listed by the source, chain 2 of 2): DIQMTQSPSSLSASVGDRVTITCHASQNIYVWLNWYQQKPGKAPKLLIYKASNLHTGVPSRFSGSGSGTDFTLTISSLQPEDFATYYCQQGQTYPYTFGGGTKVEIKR
observable: Phage binding ELISA, Anti-CD28 Fab signal

Would you please look over these solved cases?
[
  {
    "binder": "YCDGHSPAYIWKCL (Tested as clonal phage supernatant) [Phage-900 (Peptide-87 library clone, YCDGHSPAYIWKCL)]",
    "result value": 1.68
  },
  {
    "binder": "YCEGHSAEYMQKCL (Tested as clonal phage supernatant) [Phage-893 (Peptide-87 library clone, YCEGHSAEYMQKCL)]",
    "result value": 1.7
  },
  {
    "binder": "YCEGHKPEYMQKCL (Tested as clonal phage supernatant) [Phage-897 (Peptide-87 library clone, YCEGHKPEYMQKCL)]",
    "result value": 1.69
  },
  {
    "binder": "YCEGHSPWYMNKCL (Tested as clonal phage supernatant) [Phage-899 (Peptide-87 library clone, YCEGHSPWYMNKCL)]",
    "result value": 1.68
  },
  {
    "binder": "YCDGHLPVYLEKCL (Tested as clonal phage supernatant) [Phage-894 (Peptide-87 library clone, YCDGHLPVYLEKCL)]",
    "result value": 1.69
  }
]

q: May I ask what Phage binding ELISA, Anti-CD28 Fab signal has been recorded for YCDGHSSLYMHKCL (Tested as clonal phage supernatant) [Phage-904 (Peptide-87 library clone, YCDGHSSLYMHKCL)] ?
a: 1.67

q: Also check YCDGHAWEYMTKCL (Tested as clonal phage supernatant) [Phage-898 (Peptide-87 library clone, YCDGHAWEYMTKCL)]
a: 1.69

q: Also check YCAGHSPLYMLKCL (Tested as clonal phage supernatant) [Phage-892 (Peptide-87 library clone, YCAGHSPLYMLKCL)]
a: 1.7

q: Also check YCDGHAKEYMDKCL (Tested as clonal phage supernatant) [Phage-902 (Peptide-87 library clone, YCDGHAKEYMDKCL)]
a: 1.68
